SYSTEM_TESTED: KRAS G12D (Homo sapiens (Human), UniProt P01116+P62937, G12D)
Sequence (P01116-2 other isoform, or with tags, fused parts or gaps G12D): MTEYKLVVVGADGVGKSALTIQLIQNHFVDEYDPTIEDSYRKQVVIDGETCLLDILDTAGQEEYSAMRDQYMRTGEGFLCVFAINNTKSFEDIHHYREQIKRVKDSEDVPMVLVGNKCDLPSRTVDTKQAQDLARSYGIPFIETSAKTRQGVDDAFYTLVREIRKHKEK
Sequence (P62937 whole entry): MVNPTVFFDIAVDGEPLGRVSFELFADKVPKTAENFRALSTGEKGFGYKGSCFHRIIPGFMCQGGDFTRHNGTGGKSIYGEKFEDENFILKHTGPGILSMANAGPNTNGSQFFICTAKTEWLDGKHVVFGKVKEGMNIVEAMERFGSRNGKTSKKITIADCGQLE
METHOD_SUMMARY: Ras-Raf (BRAF RBD) disruption / FRET / MOA assay, KRAS G12D
Format: biochemical
CONDITION_SET: Ras-Raf disruption/FRET/MOA assay; class symbols; read-out: KRAS G12D FRET data IC50
MEASURED_PARAMETER: IC50

Asked: Which IC50 value belongs to C=CC(=O)N1CC[C@H](C(=O)N(C)[C@H](C(=O)NC2C[C@H]3CN(CCCO3)c3ccc4c(c3)c(c(-c3cccnc3[C@H](C)OC)n4CC)CC(C)(C)COC(=O)[C@@H]3CCCN(N3)C2=O)C(C)C)C1 (single isomer, unassigned) [Example A405] ?
Given back: > 10 µM

Asked: Which IC50 is reported for this molecule? C=CC(=O)N1C[C@@H](F)[C@](F)(C(=O)N(C)[C@H](C(=O)N[C@H]2Cc3cccc(c3)-c3ccc4c(c3)c(c(-c3cccnc3[C@H](C)OC)n4CC)CC(C)(C)COC(=O)[C@@H]3CCCN(N3)C2=O)C(C)C)C1 (atropisomer, axis not shown)
Given back: 1 to 10 µM

Asked: Please report the recorded IC50 for `C=CC(=O)N1CC[C@H](C(=O)N(C)[C@H](C(=O)N[C@H]2Cc3cc(O)cc(c3)-c3ccc4c(c3)c(c(-c3ccc(CN(C)C)nc3COC)n4CC)CC(C)(C)COC(=O)[C@@H]3CCCN(N3)C2=O)C(C)C)C1` .
Given back: 1 to 10 µM

Asked: Request the reported IC50 associated with CCn1c(-c2cccnc2[C@H](C)OC)c2c3cc(ccc31)-c1cccc(c1)C[C@H](NC(=O)C(COC1CN(C(=O)C#CC(C)(C)N(C)C)C1)C(C)C)C(=O)N1CCC[C@H](N1)C(=O)OCC(C)(C)C2 (stereo partly shown)
Given back: > 10 µM
